Sourced from paper PMC2891523

Molecular target: α-TTP (tocopherol transfer protein) (Homo sapiens, UniProt P49638)
Sequence (P49638 whole entry): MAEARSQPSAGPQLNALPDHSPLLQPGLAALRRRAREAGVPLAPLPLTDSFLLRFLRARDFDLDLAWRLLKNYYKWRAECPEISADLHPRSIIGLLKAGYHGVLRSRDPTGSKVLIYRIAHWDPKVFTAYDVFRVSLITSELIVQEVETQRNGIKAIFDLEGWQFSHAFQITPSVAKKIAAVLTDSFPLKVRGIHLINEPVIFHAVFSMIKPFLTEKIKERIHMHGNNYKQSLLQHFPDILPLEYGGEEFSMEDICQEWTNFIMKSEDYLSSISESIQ
Assay: fluorescence titration of purified α-TTP, one-site binding fit
Attribute measured: Kd (µM)
One number for each entry, in µM.

## Input Tell me measured Kd for CC1=CC(C)=[N+]2C1=Cc1ccc(CCCCCC[C@]3(C)CCc4c(C)c(O)c(C)c(C)c4O3)n1[B-]2(F)F [10a] please.
## Output 0.232
